Values from ChEMBL document CHEMBL1135030

- Test system: CAKI-1
- Test Name: In vitro cytotoxicity against parental and drug resistant kidney human tumor cell line CAKI
- Format: functional, cell-based
pIC50: −log10 of the molar value.
Parameter pIC50: see the listing below.

>  <Compound>
C=C/C(C)=C/C[C@@]1(C)[C@@H](C)CCC23C(=C[C@@H](OC(=O)C(C)C)C[C@@H]21)[C@H](OC(C)=O)O[C@@H]3OC(C)=O (stereo partly drawn)

>  <pIC50>
5.74

$$$$
>  <Compound>
C=C/C(C)=C/C[C@]1(C)[C@H]2C[C@H](OC(=O)C(C)CC)C=C3[C@H](OC(C)=O)O[C@H](OC(C)=O)[C@@]32[C@H](O)C[C@@H]1C (stereo partly drawn)

>  <pIC50>
5.72

$$$$
>  <Compound>
C=C/C(C)=C/C[C@@]1(C)[C@@H](C)C[C@@H](O)C23C(=C[C@@H](OC(=O)C(C)C)C[C@@H]21)[C@H](OC(C)=O)O[C@@H]3OC(C)=O (stereo partly drawn)

>  <pIC50>
5.96

$$$$

###

Below, each entry is listed with its recorded pIC50.
- Tested on: SK-MEL-2
- Test Name: In vitro cytotoxicity against parental and drug resistant melanoma human tumor cell line SK-MEL-2
- Format: functional, cell-based
pIC50: −log10 of the molar value.
Recorded Metric: pIC50

>  <Molecule>
C=C/C(C)=C/C[C@@]1(C)[C@@H](C)C[C@@H](O)C23C(=C[C@@H](OC(=O)C(C)C)C[C@@H]21)[C@H](OC(C)=O)O[C@@H]3OC(C)=O (some centres undefined)

>  <Result Qualifier>
=

>  <Reported Result>
6.15

$$$$
>  <Molecule>
C=C/C(C)=C/C[C@]1(C)[C@H]2C[C@H](OC(=O)C(C)CC)C=C3[C@H](OC(C)=O)O[C@H](OC(C)=O)[C@@]32[C@H](O)C[C@@H]1C (some centres undefined)

>  <Result Qualifier>
=

>  <Reported Result>
6.00

$$$$
>  <Molecule>
C=C/C(C)=C/C[C@@]1(C)[C@@H](C)CCC23C(=C[C@@H](OC(=O)C(C)C)C[C@@H]21)[C@H](OC(C)=O)O[C@@H]3OC(C)=O (some centres undefined)

>  <Result Qualifier>
=

>  <Reported Result>
6.00

$$$$
>  <Molecule>
C=C/C(C)=C/C[C@@]1(C)[C@@H](C)CC[C@]2(COC(C)=O)C(COC(C)=O)=CC(=O)C[C@@H]21

>  <Result Qualifier>
<

>  <Reported Result>
5.00

$$$$

###

Reported IC50 is given for each of the following molecules.
- System: HCT-8
- Test Name: In vitro cytotoxicity against parental and drug resistant ileococal human tumor cell line HCT-8
- Format: functional, cell-based

>  <Molecule>
C=C/C(C)=C/C[C@]1(C)[C@H]2C[C@H](OC(=O)C(C)CC)C=C3[C@H](OC(C)=O)O[C@H](OC(C)=O)[C@@]32[C@H](O)C[C@@H]1C (stereo partly drawn) [CASEARLUCIN A]

>  <Target Or Test System>
HCT-8

>  <IC50 (µM)>
1.3

$$$$
>  <Molecule>
C=C/C(C)=C/C[C@@]1(C)[C@@H](C)CCC23C(=C[C@@H](OC(=O)C(C)C)C[C@@H]21)[C@H](OC(C)=O)O[C@@H]3OC(C)=O (stereo partly drawn)

>  <Target Or Test System>
HCT-8

>  <IC50 (µM)>
1

$$$$
>  <Molecule>
C=C/C(C)=C/C[C@@]1(C)[C@@H](C)C[C@@H](O)C23C(=C[C@@H](OC(=O)C(C)C)C[C@@H]21)[C@H](OC(C)=O)O[C@@H]3OC(C)=O (stereo partly drawn)

>  <Target Or Test System>
HCT-8

>  <IC50 (µM)>
0.9

$$$$
